Test system: Staphylococcus aureus
protocol_summary: Intracellular bacteria per host cell (HUVEC), fluorescence microscopy
Assay type: cell-based
test_context: 10 μmol/L, 18-20 h, 100 cells counted
Lab note: cut-off is 2 bacteria/cell. Strictly less in Intracellular bacteria/cell (±SEM), Structural analog is label 1. Exactly 2 bacteria/cell or more is label 0.

CC(=O)Nc1ccc(C2CC(c3ccccc3)=NN2c2ccc(S(N)(=O)=O)cc2)cc1 (stereo not shown)
label 0
COc1ccc(C2CC(c3ccc(NC(C)=O)cc3)=NN2c2ccc(S(N)(=O)=O)cc2)cc1 (stereo not shown)
label 1
COc1ccc(CCC(=NNc2ccc(S(N)(=O)=O)cc2)c2ccccc2)cc1
label 0
CCC(=O)Nc1ccc(C2=NN(c3ccc(S(N)(=O)=O)cc3)C(c3ccc(OC)cc3)C2)cc1 (stereo not shown)
label 0
CN(C)c1ccc(C2CC(c3ccccc3)=NN2c2ccc(S(N)(=O)=O)cc2)cc1 (stereo not shown)
label 1
CCC(=O)Nc1cccc(C2=NN(c3ccc(S(N)(=O)=O)cc3)C(c3ccc(OC)cc3)C2)c1 (stereo not shown)
label 0
COc1ccc(C2CC(c3cccc(NC(C)=O)c3)=NN2c2ccc(S(N)(=O)=O)cc2)cc1 (stereo not shown)
label 1
